target_or_test_system: T1, human PD-L1 (full-length, on cells) (human, UniProt Q9NZQ7 19-290)
T1 construct: whole, on cells; Expressed on CHO-s cells; also called human PD-L1-CHO; PD-L1-CHO
T1 sequence (Q9NZQ7 19-290): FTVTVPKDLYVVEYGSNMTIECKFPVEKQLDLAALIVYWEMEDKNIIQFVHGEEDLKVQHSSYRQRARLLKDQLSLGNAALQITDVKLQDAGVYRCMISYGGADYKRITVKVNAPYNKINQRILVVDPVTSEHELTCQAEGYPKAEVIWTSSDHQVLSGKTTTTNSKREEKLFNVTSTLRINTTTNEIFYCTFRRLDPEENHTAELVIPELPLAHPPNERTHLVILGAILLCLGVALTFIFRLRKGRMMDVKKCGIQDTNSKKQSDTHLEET
test: FACS blocking on huPDL1-CHO cells; blocked ligand PD-1-Biotin 1 µg/mL; MFI = bound PD-1
property_name: IC50 (read off the curve)

binder	test_value
NB22D-21-109 (Fc fusion, not shown: 'full-length antibodies' were constructed) EVQLVESGGGLVQPGGSLRLSCAASRTAGYIHGMHWYRQAPGKGREWVGMIFGWGNTIVTDSVKGRFTISRDNAKNTLYLQMNTLRAEDTAVYYCAADVRGYGRAWGQGTTVTVSS	~0.2 µg/mL
NB22D-21-4 VHH-Fc chimeric antibody protein (Fc fusion, not shown: human IgG1 Fc fragment, its N-terminus linked to the C-terminus of the VHH) EVQLVESGGGLVQPGGSLRLSCAASRTDRNINTMHWYRQAPGKGREWVGTIFIDLNTIVTDSVKGRFTISRDNAKNTLYLQMNTLRAEDTAVYYCAADVSGYGRAWGQGTTVTVSS	~0.2 µg/mL
